Taken from patent US20240279232A1.

Entries and their measured BZR % follow.
tested on: BZR (benzodiazepine site of GABAAR); assay: GABAAR/BZR binding, rat brain homogenate with 3H-flunitrazepam; conditions: Percent inhibition at 10,000 nM; rat brain homogenate, 3H-flunitrazepam
Response body: numeric value in %, unit text excluded.

// below: answered molecules
- MOLECULE: "C#Cc1ccc2c(c1)C(c1ccccc1F)=N[C@@H](C)c1c(C(=O)NC3CC3)ncn1-2 [GL-I-55]"
  MEASURED ON: "BZR (benzodiazepine site of GABAAR)"
  ENDPOINT: "BZR %"
  RECORDED RESULT: 95
- MOLECULE: "Cc1noc(-c2ncn3c2[C@@H](C)N=C(c2ccccc2F)c2cc(C4CC4)ccc2-3)n1 [GL-III-63]"
  MEASURED ON: "BZR (benzodiazepine site of GABAAR)"
  ENDPOINT: "BZR %"
  RECORDED RESULT: 28
- MOLECULE: "C[C@H]1N=C(c2ccccc2F)c2cc(C3CC3)ccc2-n2cnc(C(=O)N(C)C)c21 [GL-III-70]"
  MEASURED ON: "BZR (benzodiazepine site of GABAAR)"
  ENDPOINT: "BZR %"
  RECORDED RESULT: 100

Measured on BZR (benzodiazepine site of GABAAR), C#Cc1ccc2c(c1)C(c1ccccc1F)=N[C@@H](C)c1c(-c3nc(C(C)C)no3)ncn1-2 [GL-I-81] has a documented BZR % of 83

Per the reported BZR (benzodiazepine site of GABAAR) data, C#Cc1ccc2c(c1)C(c1ccccc1F)=N[C@@H](C)c1c(C(=O)OC3CC3)ncn1-2 [GL-I-38] has BZR % of 96

Measured BZR % (BZR (benzodiazepine site of GABAAR)), entry C#Cc1ccc2c(c1)C(c1ccccc1F)=N[C@H](C)c1c(-c3cnco3)ncn1-2 [GL-III-73] : 65

Item: C#Cc1ccc2c(c1)C(c1ccccn1)=N[C@H](C)c1c(C(=O)OC)ncn1-2 [GL-II-32] | System: BZR (benzodiazepine site of GABAAR) | BZR %: 63

BZR % on BZR (benzodiazepine site of GABAAR) for CCOC(=O)c1ncn2c1[C@@H](C)N=C(c1ccccn1)c1cc(Br)ccc1-2 [GL-II-06] is 81

Record for C#Cc1ccc2c(c1)C(c1ccccn1)=NCc1c(-c3ocnc3C)ncn1-2 [KRM-III-79] under target or system BZR (benzodiazepine site of GABAAR): BZR % reported as 81

----------
target: MOR (μ opioid receptor) (Homo sapiens); construct: expressed in transfected cells; host or cells: HEK293; experiment: MOR radioligand binding ([3H]-DAMGO, HEK293 cell homogenates); conditions: [3H]-DAMGO; read-out: MOR affinity Ki
ENDPOINT: pKi
In simple prose, pKi is minus the logarithm base ten of a concentration in moles per litre.

// C#Cc1ccc2c(c1)C(c1ccccc1F)=NC(C)c1c(C(=O)OC(C)(C)C)ncn1-2 (stereo not shown) [GL-I-30] : pKi value = 5.73

----------
Readings of inhibition at 10 µM for the listed molecules
target: MOR (μ opioid receptor) (Homo sapiens, UniProt P35372); construct: expressed in transfected cells; host or cells: HEK293; test: MOR radioligand binding ([3H]-DAMGO, HEK293 cell homogenates); details: Percent inhibition at 10,000 nM; [3H]-DAMGO
Sequence (P35372 whole entry, species assumed): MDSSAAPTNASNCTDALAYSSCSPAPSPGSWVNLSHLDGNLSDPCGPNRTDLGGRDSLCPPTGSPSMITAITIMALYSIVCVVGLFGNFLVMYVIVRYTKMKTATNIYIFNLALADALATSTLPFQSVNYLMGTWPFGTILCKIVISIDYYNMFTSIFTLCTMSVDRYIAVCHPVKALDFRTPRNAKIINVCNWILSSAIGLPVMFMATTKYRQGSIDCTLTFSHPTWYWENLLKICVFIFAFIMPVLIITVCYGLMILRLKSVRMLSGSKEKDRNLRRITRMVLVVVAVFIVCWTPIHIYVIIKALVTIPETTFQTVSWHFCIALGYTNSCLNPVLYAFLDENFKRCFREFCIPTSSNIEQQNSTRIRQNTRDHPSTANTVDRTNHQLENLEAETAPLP
Supply the numeric figure in %, leaving out any unit text.

- MOLECULE: "C#Cc1ccc2c(c1)C(c1ccccc1F)=N[C@@H](C)c1c(-c3nc(C(C)C)no3)ncn1-2"
  MEASURED ON: "MOR (μ opioid receptor) (Homo sapiens, UniProt P35372)"
  inhibition at 10 µM (%): 64
- MOLECULE: "C#Cc1ccc2c(c1)C(c1ccccn1)=NCc1c(-c3cnco3)ncn1-2"
  MEASURED ON: "MOR (μ opioid receptor) (Homo sapiens, UniProt P35372)"
  inhibition at 10 µM (%): 30
- MOLECULE: "C#Cc1ccc2c(c1)C(c1ccccc1F)=N[C@H](C)c1c(-c3nc(C)no3)ncn1-2"
  MEASURED ON: "MOR (μ opioid receptor) (Homo sapiens, UniProt P35372)"
  inhibition at 10 µM (%): 7
- MOLECULE: "C#Cc1ccc2c(c1)C(c1ccccc1F)=NCc1c(-c3cnco3)ncn1-2 [KRM-II-18B]"
  MEASURED ON: "MOR (μ opioid receptor) (Homo sapiens, UniProt P35372)"
  inhibition at 10 µM (%): 11
- MOLECULE: "C#Cc1ccc2c(c1)C(c1ccccc1F)=N[C@@H](C)c1c(C(=O)O)ncn1-2"
  MEASURED ON: "MOR (μ opioid receptor) (Homo sapiens, UniProt P35372)"
  inhibition at 10 µM (%): 0
- MOLECULE: "C#Cc1ccc2c(c1)C(c1ccccn1)=N[C@H](C)c1c(C(=O)O)ncn1-2"
  MEASURED ON: "MOR (μ opioid receptor) (Homo sapiens, UniProt P35372)"
  inhibition at 10 µM (%): 20
- MOLECULE: "C#Cc1ccc2c(c1)C(c1ccccc1F)=N[C@@H](C)c1c(C(=O)NCC)ncn1-2"
  MEASURED ON: "MOR (μ opioid receptor) (Homo sapiens, UniProt P35372)"
  inhibition at 10 µM (%): 22

Lab note: measured inhibition at 10 µM of C#Cc1ccc2c(c1)C(c1ccccc1F)=N[C@H](C)c1c(C(=O)OCC)ncn1-2 was 28

----------
Each entry below carries its reported inhibition at 10 µM.
molecular target: MOR (μ opioid receptor) (Homo sapiens); construct: expressed in transfected cells; host or cells: HEK293; assay: MOR radioligand binding ([3H]-DAMGO, HEK293 cell homogenates); conditions: Percent inhibition at 10,000 nM; [3H]-DAMGO
// units = %; emit number, no label

Guide cases for inhibition at 10 µM, answers given:
- INPUT SMILES: "C#Cc1ccc2c(c1)C(c1ccccn1)=NCc1c(C(=O)OC(C)C)ncn1-2"
  inhibition at 10 µM (%): 0
- INPUT SMILES: "CCNC(=O)c1ncn2c1[C@@H](C)N=C(c1ccccc1F)c1cc(C3CC3)ccc1-2"
  inhibition at 10 µM (%): 0
- INPUT SMILES: "C#Cc1ccc2c(c1)C(c1ccccc1F)=N[C@@H](C)c1c(-c3nc(CC)no3)ncn1-2"
  inhibition at 10 µM (%): 28

Continue with the next molecule.
Form: molecule = C#Cc1ccc2c(c1)C(c1ccccc1F)=N[C@H](C)c1c(C(=O)NC(C)C)ncn1-2 ; inhibition at 10 µM = 0

----------
biological target: MOR (μ opioid receptor) (Homo sapiens, UniProt P35372); construct: expressed in transfected cells; host or cells: HEK293; assay: MOR radioligand binding ([3H]-DAMGO, HEK293 cell homogenates); conditions: Percent inhibition at 10,000 nM; [3H]-DAMGO
ENDPOINT: inhibition at 10 µM
Please don't drop the unit; write it after the number.

Use the examples below as a reference point.
- INPUT SMILES: "CCc1noc(-c2ncn3c2[C@@H](C)N=C(c2ccccc2F)c2cc(C4CC4)ccc2-3)n1"
  inhibition at 10 µM: "25%"
- INPUT SMILES: "C#Cc1ccc2c(c1)C(c1ccccc1F)=N[C@@H](C)c1c(C(=O)OC(C)C)ncn1-2"
  inhibition at 10 µM: "32%"
- INPUT SMILES: "C#Cc1ccc2c(c1)C(c1ccccn1)=NCc1c(C(=O)OCC)ncn1-2"
  inhibition at 10 µM: "6%"
- INPUT SMILES: "C#Cc1ccc2c(c1)C(c1ccccn1)=NCc1c(C(=O)O)ncn1-2"
  inhibition at 10 µM: "8%"

Measured inhibition at 10 µM, C#Cc1ccc2c(c1)C(c1ccccn1)=NCc1c(C(=O)OC)ncn1-2 : 0%

----------
// reported inhibition at 10 µM per item
molecular target: DOR (δ opioid receptor) (Homo sapiens); construct: expressed in transfected cells; host or cells: HEK293; experiment: DOR radioligand binding ([3H]-DADLE, HEK293 cell homogenates); conditions: Percent inhibition at 10,000 nM; [3H]-DADLE
Sequence (P41143 whole entry): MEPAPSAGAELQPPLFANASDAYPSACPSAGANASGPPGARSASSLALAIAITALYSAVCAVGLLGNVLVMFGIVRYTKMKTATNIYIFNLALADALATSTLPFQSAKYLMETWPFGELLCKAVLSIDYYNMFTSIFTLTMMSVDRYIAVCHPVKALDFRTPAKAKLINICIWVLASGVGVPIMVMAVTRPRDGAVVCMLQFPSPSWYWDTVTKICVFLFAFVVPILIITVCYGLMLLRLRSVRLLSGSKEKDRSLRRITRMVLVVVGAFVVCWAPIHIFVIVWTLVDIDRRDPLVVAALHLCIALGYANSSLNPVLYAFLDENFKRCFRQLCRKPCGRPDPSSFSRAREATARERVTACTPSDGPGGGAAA
Note: unit % is implicit; provide only the numeric part.

- INPUT SMILES: "C#Cc1ccc2c(c1)C(c1ccccn1)=NCc1c(C(=O)O)ncn1-2"
  RECORDED RESULT: 1
- INPUT SMILES: "C#Cc1ccc2c(c1)C(c1ccccc1F)=N[C@@H](C)c1c(C(=O)OCC)ncn1-2"
  RECORDED RESULT: 36
- INPUT SMILES: "CCc1noc(-c2ncn3c2[C@@H](C)N=C(c2ccccc2F)c2cc(C4CC4)ccc2-3)n1"
  RECORDED RESULT: 67
- INPUT SMILES: "Cc1noc(-c2ncn3c2[C@@H](C)N=C(c2ccccc2F)c2cc(Br)ccc2-3)n1"
  RECORDED RESULT: 18
- INPUT SMILES: "C#Cc1ccc2c(c1)C(c1ccccn1)=N[C@H](C)c1c(C(=O)OC)ncn1-2"
  RECORDED RESULT: 0
- INPUT SMILES: "C#Cc1ccc2c(c1)C(c1ccccc1F)=N[C@H](C)c1c(C(=O)O)ncn1-2"
  RECORDED RESULT: 0
- INPUT SMILES: "C#Cc1ccc2c(c1)C(c1ccccc1F)=N[C@H](C)c1c(C(=O)OCC)ncn1-2"
  RECORDED RESULT: 32

Next molecule, please.
Note to self: inhibition at 10 µM recorded for C#Cc1ccc2c(c1)C(c1ccccc1F)=N[C@@H](C)c1c(C(=O)OC(C)C)ncn1-2 was 8
